experimentalTarget: G-protein coupled receptor 39 (Homo sapiens, UniProt O43194)
Sequence (O43194 whole entry): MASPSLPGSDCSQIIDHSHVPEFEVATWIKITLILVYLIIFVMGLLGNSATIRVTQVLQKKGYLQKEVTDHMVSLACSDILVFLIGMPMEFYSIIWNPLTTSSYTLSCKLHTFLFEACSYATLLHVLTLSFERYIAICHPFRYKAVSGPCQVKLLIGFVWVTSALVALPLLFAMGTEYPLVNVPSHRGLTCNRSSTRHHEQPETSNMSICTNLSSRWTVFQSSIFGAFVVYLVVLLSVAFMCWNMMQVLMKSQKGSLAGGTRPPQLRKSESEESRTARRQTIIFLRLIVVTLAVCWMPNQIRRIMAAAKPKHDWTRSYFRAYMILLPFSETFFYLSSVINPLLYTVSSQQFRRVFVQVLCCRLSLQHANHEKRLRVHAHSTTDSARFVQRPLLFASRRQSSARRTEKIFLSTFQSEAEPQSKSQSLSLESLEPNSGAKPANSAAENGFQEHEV
testProtocol: Agonist activity at human GPR39 expressed in HEK293 cells co-expressing Galphaq assessed as myo-[2-3H]inositol phosphate accumulation measured after 75 mins by scintillation proximity assay
Format: functional, cell-based
pEC50: −log10 of the molar value.
measure: pEC50

Cc1nn(-c2ncnc3nc[nH]c23)c2c1C(c1ccc(F)cc1F)CC(=O)N2 (stereo not given): 6.34
Cc1cc(C)n(CCOC2CC(=O)Nc3c2c(C)nn3-c2ncnc3nc[nH]c23)n1 (stereo not given): 5.70
Cc1nn(-c2ncnc3nc[nH]c23)c2c1C(OC1CCCC1)CC(=O)N2 (stereo not given): 7.21
Cc1nn(-c2ncnc3nc[nH]c23)c2c1C(OCc1ccccc1C#N)CC(=O)N2 (stereo not given): 6.90
Cc1nn(-c2ncnc3nc[nH]c23)c2c1C(OCCn1cccn1)CC(=O)N2 (stereo not given): 5.64
Cc1nn(-c2ncnc3nc[nH]c23)c2c1C(C(=O)N(C)c1nccs1)CC(=O)N2 (stereo not given): 5.48
Cc1nn(-c2ncnc3nc[nH]c23)c2c1C(OCC(C)C)CC(=O)N2 (stereo not given): 6.95
Cc1nn(-c2ncnc3nc[nH]c23)c2c1C(OCC(=O)c1ccc(F)cc1)CC(=O)N2 (stereo not given): 6.01
Cc1nn(-c2ncnc3nc[nH]c23)c2c1C(OC(=O)Cc1ccccc1)CC(=O)N2 (stereo not given): 6.42
Cc1nn(-c2ncnc3nc[nH]c23)c2c1C(NC(=O)c1ccccc1)CC(=O)N2 (stereo not given): 6.80

====

experimentalTarget: G-protein coupled receptor 39 (Homo sapiens) (UniProt O43194)
Sequence (O43194 whole entry): as above
testProtocol: Agonist activity at human GPR39 expressed in HEK293 cells co-expressing Galphaq assessed as myo-[2-3H]inositol phosphate accumulation measured after 75 mins by scintillation proximity assay
Assay type: functional, cell-based
Calls of active or inactive are those of the source. The calls are words filed in the database; no cut-off is given here.
measure: Activity

OCC(O)/C=N/Nc1nc(Nc2ccccc2)nc(Nc2ccccc2)n1 (stereo not given): inactive
CC(C)(C)c1cc(C(=O)N/N=C/c2ccc(O)cc2O)[nH]n1: inactive
O=C1/C(=C/NCCCO)C(c2ccccc2)=NN1c1nc2ccccc2s1: inactive
C/C(=N\NC(=O)c1cc2ccccc2cc1O)c1ccc(N)cc1: inactive
C=CCN1c2c(n(C)c(=O)n(C)c2=O)NC1N/N=C/c1ccc(O)cc1O (stereo not given): inactive

====

experimentalTarget: G-protein coupled receptor 39 (Homo sapiens, UniProt O43194)
testProtocol: Agonist activity at human GPR39 expressed in HEK293 cells co-expressing Galphaq assessed as myo-[2-3H]inositol phosphate accumulation in presence of 10 uM Zn2+ measured after 75 mins by scintillation proximity assay
Assay type: functional, cell-based
measure: EC50 (nM)

Cc1nn(-c2ncnc3nc[nH]c23)c2c1C(OCc1ccc(Cl)cc1Cl)CC(=O)N2 (centres undefined): 4
Cc1nn(-c2ncnc3nc[nH]c23)c2c1C(OCc1cc(F)cc3c1OCOC3)CC(=O)N2 (centres undefined): 1.5
Cc1nn(-c2ncnc3nc[nH]c23)c2c1C(C(=O)N(C)c1nccs1)CC(=O)N2 (centres undefined): 18
Cc1nn(-c2ncnc3nc[nH]c23)c2c1C(OCCc1ccccc1)CC(=O)N2 (centres undefined): 3
Cc1nn(-c2ncnc3nc[nH]c23)c2c1C(NC(=O)c1ccccc1)CC(=O)N2 (centres undefined): 3
Cc1nn(-c2ncnc3nc[nH]c23)c2c1C(C(=O)NCc1ccc(F)cc1)CC(=O)N2 (centres undefined): 4
COc1ccc(CCOC2CC(=O)Nc3c2c(C)nn3-c2ncnc3nc[nH]c23)cc1 (centres undefined): 2
Cc1nn(-c2ncnc3nc[nH]c23)c2c1C(OCC(=O)c1ccc(F)cc1)CC(=O)N2 (centres undefined): 3
Cc1nn(-c2ncnc3nc[nH]c23)c2c1C(OC1CCCC1)CC(=O)N2 (centres undefined): 2

====

testProtocol: Half life in human liver microsomes at 3 uM measured by LC-MS/MS analysis
Assay type: ADME, microsome
measure: half-life at 3 µM (min)

Cc1nn(-c2ncnc3nc[nH]c23)c2c1C(c1ccc(OC(C)C)cc1)CC(=O)N2 (configuration not stated): 24
Cc1nn(-c2ncnc3nc[nH]c23)c2c1C(c1ccc(F)cc1Cl)CC(=O)N2 (configuration not stated): 58
